Molecular target: Neu5Ac(a2-6)Gal(b1-4)GlcNAc(b1-2)Man(a1-3)[Neu5Ac(a2-6)Gal(b1-4)GlcNAc(b1-2)Man(a1-6)]Man(b1-4)GlcNAc(b1-4)[Fuc(a1-6)]GlcNAc
Experiment: glycan array binding signal (z-score within array); higher = stronger binding
Conditions: glycan notation: IUPAC condensed, linker removed
Shown is part of a subset that was picked to be rich in the strongest signals.
Would you mind labelling by glycan array binding signal (z-score)? At or over 0.8 is satisfied, under is not satisfied.

• SAOUHSC 02783 (Staphylococcus aureus), Q5HD69 (protein) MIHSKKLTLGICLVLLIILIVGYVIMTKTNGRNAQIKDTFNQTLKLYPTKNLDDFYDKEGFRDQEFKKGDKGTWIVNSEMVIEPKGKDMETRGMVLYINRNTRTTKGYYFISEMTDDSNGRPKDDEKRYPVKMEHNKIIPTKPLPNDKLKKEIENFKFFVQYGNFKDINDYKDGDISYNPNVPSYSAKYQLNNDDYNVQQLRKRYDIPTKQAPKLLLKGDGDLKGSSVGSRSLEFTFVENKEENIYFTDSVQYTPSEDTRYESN = satisfied
• BabA (Helicobacter pylori), O52269_HELPY (protein) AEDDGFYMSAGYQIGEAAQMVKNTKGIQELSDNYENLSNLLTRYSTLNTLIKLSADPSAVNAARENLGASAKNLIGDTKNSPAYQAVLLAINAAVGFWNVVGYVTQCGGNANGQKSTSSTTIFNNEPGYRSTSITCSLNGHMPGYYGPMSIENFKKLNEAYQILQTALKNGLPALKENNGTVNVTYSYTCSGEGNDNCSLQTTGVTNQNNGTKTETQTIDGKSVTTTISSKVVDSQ = satisfied
• SSP1 (Sclerotinia sclerotiorum), XP_001584968 (protein) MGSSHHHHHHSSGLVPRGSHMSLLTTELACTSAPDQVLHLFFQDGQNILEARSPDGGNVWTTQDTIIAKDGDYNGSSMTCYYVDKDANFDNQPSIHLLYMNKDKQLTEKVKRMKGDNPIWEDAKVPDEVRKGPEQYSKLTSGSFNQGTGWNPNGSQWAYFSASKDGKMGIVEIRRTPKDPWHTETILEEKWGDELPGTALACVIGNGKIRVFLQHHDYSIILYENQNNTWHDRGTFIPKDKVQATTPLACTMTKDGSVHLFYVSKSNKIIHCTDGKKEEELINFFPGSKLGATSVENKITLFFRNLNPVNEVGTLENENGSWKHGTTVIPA = not satisfied
• Pwp2 (Candida glabrata) (protein) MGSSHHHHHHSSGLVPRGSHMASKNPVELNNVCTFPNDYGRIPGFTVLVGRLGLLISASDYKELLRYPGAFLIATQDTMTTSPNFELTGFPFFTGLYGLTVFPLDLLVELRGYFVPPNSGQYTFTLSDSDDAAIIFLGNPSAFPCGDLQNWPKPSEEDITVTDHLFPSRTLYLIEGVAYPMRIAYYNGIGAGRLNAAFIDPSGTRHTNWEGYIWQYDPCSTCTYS = satisfied
